Biological target: 5-hydroxytryptamine receptor 2B (Rattus norvegicus) (UniProt P30994)
Sequence (P30994 whole entry): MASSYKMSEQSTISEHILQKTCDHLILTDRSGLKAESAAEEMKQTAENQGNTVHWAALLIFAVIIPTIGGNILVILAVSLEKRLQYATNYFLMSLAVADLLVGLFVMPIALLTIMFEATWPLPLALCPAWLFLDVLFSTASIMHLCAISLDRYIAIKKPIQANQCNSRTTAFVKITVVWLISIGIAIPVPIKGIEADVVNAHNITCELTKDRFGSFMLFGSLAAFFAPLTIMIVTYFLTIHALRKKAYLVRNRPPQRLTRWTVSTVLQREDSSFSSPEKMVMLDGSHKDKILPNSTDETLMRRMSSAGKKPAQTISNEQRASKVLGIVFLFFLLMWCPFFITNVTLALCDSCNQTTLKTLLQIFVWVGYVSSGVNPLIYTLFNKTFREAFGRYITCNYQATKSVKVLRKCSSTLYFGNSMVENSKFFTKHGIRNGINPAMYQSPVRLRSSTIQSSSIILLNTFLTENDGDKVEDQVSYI
Test: Binding affinity analysed for 5-HT 2B receptor in rat stomach fundus
Format: tissue-based
Value Type: -Log KB

For orientation, consider the following solved cases.
COc1ccc(CC2NCCc3c2[nH]c2c(Br)c(C)ccc32)cc1OC (stereo not drawn) = 9.02
Cc1ccc2[nH]c3c(c2c1)CCNC3Cc1ccc(F)c(F)c1 (stereo not drawn) = 8.47
COc1cccc(CC2NCCc3c2[nH]c2ccccc32)c1 (stereo not drawn) = 8.04
COC1=CC=C(CC2NCCc3c2n(C)c2ccc(C)cc32)CC1OC (stereo not drawn) = < 7.52
CCc1ccc2c(c1)C1CCNC(Cc3cccc4ccccc34)C1N2 (stereo not drawn) = 9.65

Just so you know, measured -Log KB for COc1ccc(CC2NCCc3c2[nH]c2ccc(C)cc32)c(N)c1OC (stereo not drawn) came out at 9.02

What the record says about COc1ccc(CC2NCCc3c2[nH]c2c(C)cccc32)cc1OC (stereo not drawn) : -Log KB is 9

====

Molecular target: 5-hydroxytryptamine receptor 2B (Rattus norvegicus) (UniProt P30994)
Test: Binding affinity analysed for 5-HT 2B receptor in rat stomach fundus
Format: tissue-based
Measured -Log KB of individual entries
// return a plain number; no unit text

Solved cases (8 shown):
c1ccc2c3c([nH]c2c1)C(Cc1ccc2c(c1)OCO2)NCC3 (stereo unspecified) = 8.4
COc1ccc(CC2NCCc3c2[nH]c2c(C)cc(C)cc32)cc1OC (stereo unspecified) = 9.61
c1ccc2cc(CC3NCCc4c3[nH]c3ccccc43)ccc2c1 (stereo unspecified) = 7.84
CN1CC[C@@H]2CN3CCc4cccc(c43)[C@@H]2C1 = 7.34
Cc1cc(Br)c2c(c1)C1CCNC(Cc3cccc4ccccc34)C1N2 (stereo unspecified) = 8.82
COc1ccc(CC2NCCc3c2[nH]c2ccc(C)c(F)c32)cc1OC (stereo unspecified) = 9.3
Clc1ccc(CC2NCCc3c2[nH]c2ccccc32)cc1Cl (stereo unspecified) = 8.22
COc1ccc(CC2NCCc3c2[nH]c2ccc(C)cc32)c(Br)c1OC (stereo unspecified) = 9.7

Here is another compound to look at.
So, Cc1ccc2[nH]c3c(c2c1)CCNC3Cc1ccc(C)c(C)c1 (stereo unspecified) ? Its -Log KB was 9.06

====

Target: 5-hydroxytryptamine receptor 2B (Rattus norvegicus)
Test: Binding affinity analysed for 5-HT 2B receptor in rat stomach fundus
Format: tissue-based
Value Type: -Log KB

Worked cases, answers included:
COc1ccc(OC)c(CC2NCCc3c2[nH]c2ccccc32)c1 (stereo unspecified) = 7.75
Brc1cccc2c1NC1C(Cc3cccc4ccccc34)NCCC21 (stereo unspecified) = 9.1
COc1ccc(CC2NCCc3c2[nH]c2ccc(C)cc32)c(Cl)c1OC (stereo unspecified) = 9.8
COc1ccc(CC2NCCc3c2[nH]c2ccc(C)cc32)c([N+](=O)[O-])c1OC (stereo unspecified) = 9.16
Cc1ccc2c(c1Br)NC1C(Cc3cccc4ccccc34)NCCC21 (stereo unspecified) = 8.56

Notebook: CCOc1ccc(CC2NCCc3c2[nH]c2ccccc32)cc1OCC (stereo unspecified) , -Log KB read as 8.57

====

Listed compounds paired with reported -Log KB
Biological target: 5-hydroxytryptamine receptor 2B (Rattus norvegicus)
Assay: Binding affinity analysed for 5-HT 2B receptor in rat stomach fundus
Format: tissue-based

Would you please look over these solved cases?
COc1ccc(CC2c3c(c4cc(C)ccc4n3C)CCN2C)c(Cl)c1OC (stereo not drawn) = < 7.52
O=C(O)c1ccc2c(c1)C1CCNC(Cc3cccc4ccccc34)C1N2 (stereo not drawn) = < 7.5

Measured -Log KB of COc1ccc(CN2CCc3c([nH]c4ccccc34)C2)cc1OC : < 5.52
